# credit: patent US9265747B2

Test system: NTera-2, human testicular cancer
PROTOCOL_SUMMARY: MTT assay, NTera-2 cells
Format: cell-based
RECORDED_CONDITIONS: Homo sapiens, NTERA2, 72 hours
MEASURED_ENDPOINT: IC50

> print(dat)
   chemical.string    result
1    O=C(O)C(Cl)Cl  > 400 nM

----------
Test system: U2OS, human osteosarcoma
PROTOCOL_SUMMARY: MTT assay, U2OS cells
Type: cell-based
RECORDED_CONDITIONS: Homo sapiens, 72 hours
MEASURED_ENDPOINT: IC50

> print(dat)
   chemical.string     target.or.test.system    result
1    O=C(O)C(Cl)Cl  U2OS, human osteosarcoma  > 100 µM
